# Target Under Test: Histone deacetylase
# Assay Text: Inhibition of HDAC in cisplatin resistant human A2780 cells after 18 hrs by fluorescence assay
# Assay type: cell-based
Readout Type: IC50 (nM)

Worked cases, answers included:
> print(dat)
                             smiles.str  readout.type  reading
1   CC(C)c1ccc(NC(=O)NOCCCCCC(=O)NO)cc1          IC50     2050
2    O=C(CCCCCONC(=O)Nc1cccc2ccccc12)NO          IC50      900
3           O=C(CCCCONC(=O)Nc1ccccc1)NO          IC50    16600
4  Nc1ccccc1NC(=O)CCCCCONC(=O)Nc1ccccc1          IC50    43900

P: O=C(CCCCCONC(=O)Nc1ccccc1)NO
Q: Cc1ccc(C(=O)NOCCCCCC(=O)NO)cc1
QUERY: Lowest IC50? choose P or Q Please identify the chosen entry by its label.
RESULT: P
(P: 1710 nM, Q: 3460 nM)
